Where do the numbers come from? From PubChem BioAssay (Tox21).

- Method description: qHTS RealTime-Glo MT Cell Viability Assay in HEK293 cells - 40 hour (AID 1224874); note: potency is the fitted concentration of half-maximal effect; nearly all actives have a fitted effect of over 50% in size
- Assay setup: RealTime-Glo luminescence
Results filed as inconclusive are left out. Calls of active or inactive are those of the source. Calls come from the whole dose curve; as a rule, active = well fitted cell-killing curve with a large enough effect in the repeat runs; inconclusive = weak or mixed curves, or effect the other way; inactive = flat fitted curve, though single readings scatter.
Readout name: Potency

// query Recorded Potency of CCCCCCCCCCCCCCCCCCNC(=O)OC1CCN(C(=O)OC[C@H](COC(=O)N(Cc2cccc[n+]2CC)C(=O)c2ccccc2OC)OC)CC1 , please.
// result 9.52 µM (active)

// query Query CC(c1cc(C(C)(C)C)cc(C(C)(C)C)c1O)c1cc(C(C)(C)C)cc(C(C)(C)C)c1O next
// result 19.5 µM (active)

// query Consider next the molecule COc1cc(/C=C/C(=O)CC(=O)/C=C/c2ccc(O)c(OC)c2)ccc1O in the same way.
// result 22 µM (active)

// query Same question for C=CCc1cc(S(=O)(=O)c2ccc(O)c(CC=C)c2)ccc1O please.
// result 24.5 µM (active)

// query Next up: c1ccc(C[P+](c2ccccc2)(c2ccccc2)c2ccccc2)cc1
// result 1.38 µM (active)

// query Param item: O=S(=O)(c1ccc(OCc2ccccc2)cc1)c1ccccc1O
// result 19.5 µM (active)

// query Try this molecule next: O=[N+]([O-])c1ccc(O)c2ncccc12
// result 9.52 µM (active)

// query Do the same for c1ccc(-c2nc3ccccc3[nH]2)cc1 please
// result 21.9 µM (active)

// query What about this molecule? Cc1cc(F)ccc1-c1cc(N2CC[C@@H](O)[C@H]2CO)ncc1N(C)C(=O)C(C)(C)c1cc(C(F)(F)F)cc(C(F)(F)F)c1
// result 17.1 µM (active)

// query Continue with O=C(Nc1ccc([N+](=O)[O-])cc1)Nc1ccc([N+](=O)[O-])cc1 (tested in a mixture with another compound)
// result 4.77 µM (active)

// query Subsequent entry: CN(C)CCOc1ccc(/C(=C(/CCCl)c2ccccc2)c2ccccc2)cc1
// result 40.9 µM (active)

// query Param item: O=C(CCCCCCCCc1cccnc1)N1CCC(C=C(c2ccccc2)c2ccccc2)CC1
// result 21.9 µM (active)

// query Entry O[Si](c1ccccc1)(c1ccccc1)c1ccccc1 please
// result 38.9 µM (active)

// query Likewise for CCOc1ccc([N+](=O)[O-])cc1 ?
// result 49.7 µM (active)

// query Now give it for CC(=O)[C@]1(O)Cc2c(O)c3c(c(O)c2[C@@H](O[C@H]2C[C@H](N)[C@H](O)[C@H](C)O2)C1)C(=O)c1ccccc1C3=O too.
// result 0.0601 µM (active)

// query Now consider CCCCC/C=C\C=C\C(=O)OCC and answer again.
// result 57.2 µM (active)

// query Please do the same for CCCCCN=C(N)N/N=C/c1c[nH]c2ccc(OC)cc12 as well.
// result 4.25 µM (active)

// query Thanks! And CCCCCCCC/C=C\CCCCCCCC(=O)N(CCO)CCO ?
// result 43.5 µM (active)

---

- Target or test system: Aryl hydrocarbon receptor (Homo sapiens) (UniProt P35869)
- Sequence (P35869 whole entry, looked up): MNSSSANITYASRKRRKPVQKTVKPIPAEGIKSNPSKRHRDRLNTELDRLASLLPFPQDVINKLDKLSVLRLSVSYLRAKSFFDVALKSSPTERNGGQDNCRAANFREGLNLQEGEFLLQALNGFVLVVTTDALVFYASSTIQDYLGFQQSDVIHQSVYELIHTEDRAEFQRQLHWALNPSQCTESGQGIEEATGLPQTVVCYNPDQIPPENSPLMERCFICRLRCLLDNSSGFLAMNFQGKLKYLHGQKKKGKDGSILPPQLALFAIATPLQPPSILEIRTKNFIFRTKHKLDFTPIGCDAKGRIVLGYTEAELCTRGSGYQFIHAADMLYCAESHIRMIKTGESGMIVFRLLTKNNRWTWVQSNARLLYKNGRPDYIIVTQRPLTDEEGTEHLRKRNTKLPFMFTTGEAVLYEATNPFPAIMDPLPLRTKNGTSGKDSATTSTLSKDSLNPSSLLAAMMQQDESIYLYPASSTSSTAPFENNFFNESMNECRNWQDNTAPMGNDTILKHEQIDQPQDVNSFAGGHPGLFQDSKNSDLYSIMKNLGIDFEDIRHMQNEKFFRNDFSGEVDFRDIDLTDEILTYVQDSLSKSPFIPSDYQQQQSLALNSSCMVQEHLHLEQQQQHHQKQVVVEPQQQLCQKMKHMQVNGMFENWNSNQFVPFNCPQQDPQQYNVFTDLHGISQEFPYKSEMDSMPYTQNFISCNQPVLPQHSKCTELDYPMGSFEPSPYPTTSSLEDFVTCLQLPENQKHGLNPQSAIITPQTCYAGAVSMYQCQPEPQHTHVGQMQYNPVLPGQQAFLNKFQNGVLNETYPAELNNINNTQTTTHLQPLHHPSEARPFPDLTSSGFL
- Method description: qHTS assay to identify small molecule that activate the aryl hydrocarbon receptor (AhR) signaling pathway (AID 743085); note: nearly all actives have a fitted effect of over 15% in size;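 for activation: HG2L7.5c1 human HepG2 liver cells with stably integrated DRE-driven firefly reporter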
- Assay setup: HepG2 AhR-luc (HG2L7.5c1), luciferase, 24 h; series mostly up to 70.3 µM
- Text: U.S. Tox21 Program National Center for Advancing Translational Sciences [NCATS] NIH Chemical Genomics Center [NCGC] U.S. Environmental Protection Agency [EPA] National Institutes of Environmental Health Sciences [NIEHS] National Toxicology Program [NTP] U.S. Food and Drug Administration [FDA] Tox21 Assay overview: The Aryl hydrocarbon Receptor (AhR), a member of the family of basic helix-loop-helix transcription factors, is crucial to adaptive responses to environmental changes. […]
Records with an inconclusive call do not appear. The source made the active and inactive calls. Calls come from the whole dose curve; as a rule, active = well fitted activation curve with a large enough effect in the repeat runs; inconclusive = weak or mixed curves; inactive = no such curve, though single readings can be large or run the other way.
Your response should consist of one outcome taken from label 1 (active), label 0 (inactive)

// query Assay result, entry CN[C@H]1CC[C@@H](c2ccc(Cl)c(Cl)c2)c2ccc(S(N)(=O)=O)cc21 — outcome?
// result label 0

// query One more compound: c1ccc(-c2ccc(C(c3ccccc3)n3ccnc3)cc2)cc1 (stereo unspecified)
// result label 1

// query Do the same for CO/N=C(\C(=O)N[C@@H]1C(=O)N2C(C(=O)O)=C(CSc3nc(C)c(CC(=O)O)s3)CS[C@H]12)c1csc(N)n1 please
// result label 0

// query Next entry: Cc1c(N)nc([C@H](CC(N)=O)NC[C@H](N)C(N)=O)nc1C(=O)N[C@H](C(=O)N[C@H](C)[C@@H](O)[C@H](C)C(=O)N[C@H](C(=O)NCCc1nc(-c2nc(C(=O)NCCCCN=C(N)N)cs2)cs1)[C@@H](C)O)[C@@H](O[C@@H]1O[C@@H](CO)[C@@H](O)[C@H](O)[C@@H]1O[C@H]1O[C@H](CO)[C@@H](O)[C@H](OC(N)=O)[C@@H]1O)c1cnc[nH]1
// result label 0

// query Param item: O=C1CCC(c2ccccc2)(C2CCN(Cc3ccccc3)CC2)C(=O)N1 (stereo unspecified)
// result label 0

// query Input CC(C)CCC[C@@H](C)[C@H]1CC[C@H]2[C@@H]3CC=C4C[C@@H](O)CC[C@]4(C)[C@H]3CC[C@]12C
// result label 0
